Ref: paper PMC11995078

Tested On: Sirtuin 7 (SIRT7) (Homo sapiens)
Sequence (Q9NRC8 whole entry): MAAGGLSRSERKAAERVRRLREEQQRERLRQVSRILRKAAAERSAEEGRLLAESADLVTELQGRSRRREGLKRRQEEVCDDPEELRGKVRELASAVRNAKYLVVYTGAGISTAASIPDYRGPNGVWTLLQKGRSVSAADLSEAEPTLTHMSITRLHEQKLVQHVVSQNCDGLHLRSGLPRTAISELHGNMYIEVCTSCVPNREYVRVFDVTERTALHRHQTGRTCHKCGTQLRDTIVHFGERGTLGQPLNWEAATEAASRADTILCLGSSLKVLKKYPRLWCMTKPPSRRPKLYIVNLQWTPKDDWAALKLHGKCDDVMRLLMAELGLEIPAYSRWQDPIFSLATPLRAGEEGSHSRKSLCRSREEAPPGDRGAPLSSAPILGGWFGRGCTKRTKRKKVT
pIC50: −log10 of the molar value.
Measured Quantity: pIC50

>  <Molecule>
COC(=O)/C(=C\C(=O)c1ccc(O)c(O)c1)c1ccc(O)c(O)c1 [YZL-51N]

>  <Tested On>
Sirtuin 7 (SIRT7) (Homo sapiens)

>  <Reported Value>
4.90

$$$$
